Exercise: for every item that follows, state its recorded residual activity.
# SYSTEM_UNDER_TEST: Testis-specific serine/threonine-protein kinase 2 (Homo sapiens) (UniProt Q96PF2)
# Sequence (Q96PF2 whole entry): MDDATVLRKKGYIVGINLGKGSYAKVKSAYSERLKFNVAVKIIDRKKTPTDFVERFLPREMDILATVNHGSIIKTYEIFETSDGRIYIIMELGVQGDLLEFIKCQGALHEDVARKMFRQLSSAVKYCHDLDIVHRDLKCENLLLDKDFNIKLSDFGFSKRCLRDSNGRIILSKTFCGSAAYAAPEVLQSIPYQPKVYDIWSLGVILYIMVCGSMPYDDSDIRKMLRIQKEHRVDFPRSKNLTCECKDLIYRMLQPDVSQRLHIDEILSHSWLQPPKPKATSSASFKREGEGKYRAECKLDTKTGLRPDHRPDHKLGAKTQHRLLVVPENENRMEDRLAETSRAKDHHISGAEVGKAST
# COND: at 10 µM

// worked examples, residual activity included
- COMPOUND: "O=C1Cc2c([nH]c3ccc(Br)cc23)-c2ccccc2N1"
  residual activity: "76%"
- COMPOUND: "c1ccc(-c2cnc(Nc3ccc(OCCN4CCCC4)cc3)s2)cc1"
  residual activity: "74%"
- COMPOUND: "O=C1Nc2ccccc2/C1=C\\c1c(Cl)[nH]c2ccccc12"
  residual activity: "78%"
- COMPOUND: "Nc1nc(Nc2ccc(S(N)(=O)=O)cc2)nn1C(=O)c1c(F)cccc1F"
  residual activity: "76%"
- COMPOUND: "O=C(c1cc2cc(O)ccc2[nH]1)c1cc2cc(O)ccc2[nH]1"
  residual activity: "65%"
- COMPOUND: "CCN1/C(=C/C(C)=O)Sc2ccc(OC)cc21"
  residual activity: "75%"
- COMPOUND: "O=C(O)/C=C/c1cc(Br)c(Br)c(Br)c1Br"
  residual activity: "102%"
- COMPOUND: "Cn1c2ccccc2c2c3c(c4c5ccccc5n(CCC#N)c4c21)CNC3=O"
  residual activity: "40%"

I would be grateful if you could provide residual activity for each of the following entries.
1. CSc1nc(-c2ccc(F)cc2)c(-c2ccnc(NC(C)c3ccccc3)c2)[nH]1 (stereo not drawn)
2. NC(=O)Nc1sc(-c2ccc(F)cc2)cc1C(N)=O
3. O=C1C(Cl)=C(N2C(=O)CCC2=O)C(=O)c2ccccc21
4. Nc1ncnc2c1c(-c1ccc(Oc3ccccc3)cc1)cn2C1CCCC1
5. Nc1n[nH]c2nc3ccccc3nc12
6. Cn1sc(=O)n(Cc2ccccc2)c1=O
7. CC(C)[C@H](CO)Nc1nc(Nc2cc(N)cc(Cl)c2)c2ncn(C(C)C)c2n1
8. O=C1NC(=O)C(c2cn(CCCO)c3ncccc23)=C1c1cnccn1

1: 101%; 2: 54%; 3: 80%; 4: 93%; 5: 71%; 6: 84%; 7: 90%; 8: 59%

I would be grateful if you could provide residual activity for each of the following entries.
1. O=c1cc(N2CCNCC2)oc2c(-c3ccccc3)cccc12
2. CCCCc1c(-c2ccc(O)cc2)[nH]c2nccnc12

1. 82%
2. 85%

###

Exercise: for every item that follows, state its recorded residual activity.
# SYSTEM_UNDER_TEST: Dual specificity tyrosine-phosphorylation-regulated kinase 2 (Homo sapiens) (UniProt Q92630)
# Sequence (Q92630 whole entry): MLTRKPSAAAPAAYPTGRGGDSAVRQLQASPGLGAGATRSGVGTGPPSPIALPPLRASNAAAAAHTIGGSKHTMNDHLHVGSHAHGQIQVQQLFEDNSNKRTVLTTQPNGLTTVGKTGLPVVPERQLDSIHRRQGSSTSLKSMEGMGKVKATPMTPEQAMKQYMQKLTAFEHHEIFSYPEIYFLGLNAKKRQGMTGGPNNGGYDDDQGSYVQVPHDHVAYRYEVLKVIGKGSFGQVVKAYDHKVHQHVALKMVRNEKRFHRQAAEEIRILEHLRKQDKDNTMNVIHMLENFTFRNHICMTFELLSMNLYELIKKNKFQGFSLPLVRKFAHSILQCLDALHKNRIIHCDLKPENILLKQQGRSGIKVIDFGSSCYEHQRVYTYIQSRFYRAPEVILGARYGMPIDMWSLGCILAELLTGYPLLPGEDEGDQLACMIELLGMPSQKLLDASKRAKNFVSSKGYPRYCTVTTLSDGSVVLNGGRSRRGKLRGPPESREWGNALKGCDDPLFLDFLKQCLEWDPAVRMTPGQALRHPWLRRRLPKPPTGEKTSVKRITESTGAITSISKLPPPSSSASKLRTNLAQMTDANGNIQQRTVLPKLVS
# COND: at 1 µM
Numbers only, in %.

// worked examples, residual activity included
- SMILES_RECORD: "O=C1Nc2ccc(Cl)cc2/C1=C/c1cc(Cl)c(O)c(Cl)c1"
  UNIT_OF_MEASUREMENT: "%"
  residual activity: 83
- SMILES_RECORD: "Cn1sc(=O)n(Cc2ccccc2)c1=O"
  UNIT_OF_MEASUREMENT: "%"
  residual activity: 96

Now take the following molecule into account.
Name the recorded residual activity of the molecule listed here: Cn1c2ccccc2c2c3c(c4c5ccccc5n(CCC#N)c4c21)CNC3=O 76

###

# SYSTEM_UNDER_TEST: RAC-gamma serine/threonine-protein kinase (Homo sapiens)
# COND: at 1 µM
QUANTITY_MEASURED: residual activity (%)
One number for each entry, in %.

// worked examples, residual activity included
- COMPOUND: "O=C1NC(=O)C(c2cn(CCCO)c3ncccc23)=C1c1cnccn1"
  UNIT_OF_MEASUREMENT: "%"
  residual activity: 98
- COMPOUND: "O=C1NC(=O)c2c1c1c3ccccc3[nH]c1n1cncc21"
  UNIT_OF_MEASUREMENT: "%"
  residual activity: 84
- COMPOUND: "O=C1NC(=O)C(c2cn(CCCn3ccnc3)c3ccccc23)=C1Nc1ccccc1"
  UNIT_OF_MEASUREMENT: "%"
  residual activity: 50
- COMPOUND: "O=C(NC(NC(=S)Nc1ccc(F)c([N+](=O)[O-])c1)C(Cl)(Cl)Cl)C(c1ccccc1)c1ccccc1 (configuration not stated)"
  UNIT_OF_MEASUREMENT: "%"
  residual activity: 98
- COMPOUND: "O=C(O)/C=C/c1cc(Br)c(Br)c(Br)c1Br"
  UNIT_OF_MEASUREMENT: "%"
  residual activity: 105
- COMPOUND: "Cc1cc(C)c(/C=C2\\C(=O)Nc3ccccc32)[nH]1"
  UNIT_OF_MEASUREMENT: "%"
  residual activity: 101
- COMPOUND: "O=c1cc(N2CCNCC2)oc2c(-c3ccccc3)cccc12"
  UNIT_OF_MEASUREMENT: "%"
  residual activity: 85
- COMPOUND: "CC(C)c1nn(-c2c(Cl)cccc2Cl)c2nc(Cc3ccc(OCCO)cc3)[nH]c(=O)c12"
  UNIT_OF_MEASUREMENT: "%"
  residual activity: 93
- COMPOUND: "N#C/C(=C1/Nc2ccccc2S1)c1ccnc(NCCc2cccnc2)n1"
  UNIT_OF_MEASUREMENT: "%"
  residual activity: 89
- COMPOUND: "Nc1nc(Nc2ccc(S(N)(=O)=O)cc2)nn1C(=O)c1c(F)cccc1F"
  UNIT_OF_MEASUREMENT: "%"
  residual activity: 110

I would be grateful if you could provide residual activity for each of the following entries.
1. CCN(CC)CCNC(=O)c1c(C)[nH]c(/C=C2\C(=O)Nc3ccc(Cl)cc32)c1C
2. NC(=O)Nc1sc(-c2ccc(F)cc2)cc1C(N)=O

[79, 85]

###

# SYSTEM_UNDER_TEST: Serine/threonine-protein kinase Nek3 (Homo sapiens);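 further: residual NEK3 kinase activity given as percent of control, assayed in 8 mM MOPS buffer pH 7.0 containing 0.2 mM EDTA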
# COND: at 1 µM
# Description: Millipore: Percentage of residual kinase activity of NEK3 at 1uM relative to control. Control inhibitor: Phosphoric acid* at 0.3uM. Buffer: 8 mM MOPS pH 7.0, 0.2 mM EDTA
Exercise: for every item that follows, state its recorded residual activity.
Give bare numbers, in %.

// worked examples, residual activity included
- SMILES_RECORD: "O=c1cc(N2CCNCC2)oc2c(-c3ccccc3)cccc12"
  QUANTITY_MEASURED: "residual activity"
  RESULT_NUMBER: 101
- SMILES_RECORD: "O=C1Cc2c([nH]c3ccc(Br)cc23)-c2ccccc2N1"
  QUANTITY_MEASURED: "residual activity"
  RESULT_NUMBER: 81
- SMILES_RECORD: "O=C1Nc2ccc(Cl)cc2/C1=C/c1cc(Cl)c(O)c(Cl)c1"
  QUANTITY_MEASURED: "residual activity"
  RESULT_NUMBER: 115
- SMILES_RECORD: "COc1cc2c(cc1OC)-c1n[nH]c(Nc3cccc(F)c3)c1C2"
  QUANTITY_MEASURED: "residual activity"
  RESULT_NUMBER: 114

I would be grateful if you could provide residual activity for each of the following entries.
1. c1ccc(-c2cnc(Nc3ccc(OCCN4CCCC4)cc3)s2)cc1
2. O=C1NC(=O)c2c1c1c3ccccc3[nH]c1n1cncc21
3. O=C1C(Cl)=C(N2C(=O)CCC2=O)C(=O)c2ccccc21
4. CCCC(=O)Oc1ccc2[nH]c(C(=O)c3cc4ccccc4[nH]3)cc2c1
5. O=C1NC(=O)C(c2cn(CCCn3ccnc3)c3ccccc23)=C1Nc1ccccc1
6. CN([C@@H](Cc1ccc(OS(=O)(=O)c2cccc3cnccc23)cc1)C(=O)N1CCN(c2ccccc2)CC1)S(=O)(=O)c1cccc2cnccc12

1. 115
2. 77
3. 74
4. 98
5. 110
6. 99

###

Exercise: for every item that follows, state its recorded residual activity.
# SYSTEM_UNDER_TEST: Serine/threonine-protein kinase TAO2 (Homo sapiens) (UniProt Q9UL54)
# Sequence (Q9UL54 whole entry): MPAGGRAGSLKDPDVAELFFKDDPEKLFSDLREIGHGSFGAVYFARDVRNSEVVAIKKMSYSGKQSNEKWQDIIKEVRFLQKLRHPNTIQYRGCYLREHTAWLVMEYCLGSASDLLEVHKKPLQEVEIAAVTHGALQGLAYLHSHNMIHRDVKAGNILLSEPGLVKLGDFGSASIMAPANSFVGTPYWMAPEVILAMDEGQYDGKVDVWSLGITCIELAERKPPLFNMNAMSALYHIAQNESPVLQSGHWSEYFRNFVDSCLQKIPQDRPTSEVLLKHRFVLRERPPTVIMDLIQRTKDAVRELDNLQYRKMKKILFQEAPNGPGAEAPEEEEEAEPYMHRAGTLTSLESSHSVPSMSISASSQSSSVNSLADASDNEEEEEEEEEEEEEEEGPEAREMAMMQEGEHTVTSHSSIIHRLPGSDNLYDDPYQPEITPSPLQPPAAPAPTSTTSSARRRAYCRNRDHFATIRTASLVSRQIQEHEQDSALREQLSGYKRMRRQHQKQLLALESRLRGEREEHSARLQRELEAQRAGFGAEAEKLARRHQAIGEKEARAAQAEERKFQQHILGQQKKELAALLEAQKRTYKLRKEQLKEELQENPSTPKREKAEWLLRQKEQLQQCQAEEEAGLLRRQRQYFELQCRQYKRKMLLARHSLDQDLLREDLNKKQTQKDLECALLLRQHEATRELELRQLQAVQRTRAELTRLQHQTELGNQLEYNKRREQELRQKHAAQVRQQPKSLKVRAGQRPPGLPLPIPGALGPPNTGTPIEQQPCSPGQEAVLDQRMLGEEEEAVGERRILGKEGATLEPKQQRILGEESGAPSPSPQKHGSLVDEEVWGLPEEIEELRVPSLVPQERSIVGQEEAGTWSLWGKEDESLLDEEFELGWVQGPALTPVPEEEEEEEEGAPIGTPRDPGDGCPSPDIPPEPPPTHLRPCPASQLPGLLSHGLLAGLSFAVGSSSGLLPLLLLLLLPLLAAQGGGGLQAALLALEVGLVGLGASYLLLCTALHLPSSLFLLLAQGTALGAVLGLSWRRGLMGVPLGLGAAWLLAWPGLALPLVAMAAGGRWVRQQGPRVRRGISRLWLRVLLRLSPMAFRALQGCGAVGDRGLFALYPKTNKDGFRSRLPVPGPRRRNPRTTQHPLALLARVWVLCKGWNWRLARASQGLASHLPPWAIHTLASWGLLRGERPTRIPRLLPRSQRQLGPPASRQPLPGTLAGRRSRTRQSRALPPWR
# COND: at 1 µM
Hey, just the number and the unit after it is fine.

// worked examples, residual activity included
- COMPOUND: "COc1cc2nccc(Oc3ccc(NC(=O)Nc4cc(C)on4)c(Cl)c3)c2cc1OC"
  SYSTEM_UNDER_TEST: "Serine/threonine-protein kinase TAO2 (Homo sapiens) (UniProt Q9UL54)"
  residual activity: "73%"
- COMPOUND: "Nc1ncnc2[nH]nc(Nc3ccc(F)cc3)c12"
  SYSTEM_UNDER_TEST: "Serine/threonine-protein kinase TAO2 (Homo sapiens) (UniProt Q9UL54)"
  residual activity: "102%"
- COMPOUND: "O=C(NC(NC(=S)Nc1ccc(F)c([N+](=O)[O-])c1)C(Cl)(Cl)Cl)C(c1ccccc1)c1ccccc1 (stereo not given)"
  SYSTEM_UNDER_TEST: "Serine/threonine-protein kinase TAO2 (Homo sapiens) (UniProt Q9UL54)"
  residual activity: "91%"
- COMPOUND: "CC(C)N(CCC(=O)c1ccc2ccccc2c1)Cc1ccccc1"
  SYSTEM_UNDER_TEST: "Serine/threonine-protein kinase TAO2 (Homo sapiens) (UniProt Q9UL54)"
  residual activity: "100%"

Now take the following compound into account.
Name the recorded residual activity of the compound listed here: COc1ccc(COc2ccc(Cc3cnc(N)nc3N)cc2OC)cc1 100%
